assay: NCI Yeast Anticancer Drug Screen. Data for the rad50EPP+ strain (AID 151);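 note: 0% = growth of vehicle-treated control cultures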; settings: S. cerevisiae rad50 mutant strain, at 11.0 µM, active compounds read high
Compounds without any hit were thinned out: in the full panel of roughly 79,000, 15% have a hit.
measured.quantity: growth inhibition (%)

CCCCOc1ccc(Nc2c3ccccc3nc3ccccc23)cc1 ... 91
Cc1ccc(P(c2ccc(C)cc2)c2ccc(C)cc2)cc1 ... -12
O=C1c2ccccc2-c2ccc(NC(=O)C3CCCCC3C(=O)O)cc21 (stereo unspecified) ... 22
O=S(=O)(CCC[C@H]1[C@@H](CCOCc2ccccc2)C2CCCN1O2)c1ccccc1 (stereo partly specified) ... 2
N=c1oc2ccccc2cc1-c1nc2ccccc2[nH]1 ... 58
COc1ccc(/C=C2\S/C(=N/Nc3nc(-c4ccccc4)cs3)NC2=O)cc1OC ... 93
COc1ccc(C(=O)NCCN(C)C)c2nc3ccccc3cc12 ... 63
O=C1C(Br)=CC(Br)(Br)C=C1Br ... 70
O=S(=O)(O)CC[S][Sn]([S]CCS(=O)(=O)O)([c]1ccccc1)[c]1ccccc1 ... -11
CN(C)CCn1c2ccccc2c2nc3cc4ccccc4cc3nc21 ... 88
COc1ccc(/C=C2\CCc3ccccc3C2=O)cc1OC ... 1

The values you see were collected from PubChem BioAssay (NCI).
